System: ATP;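 note: ATP exposure 15 min at 22 °C before imaging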
PROCEDURE DETAILS: switch fluorescence ratio, 500 uM ATP over buffer (Cy3 cluster intensity, sum of 5 cycles each) (fold (ratio)); higher = stronger signal-on switching upon ATP binding; sequences stand for … in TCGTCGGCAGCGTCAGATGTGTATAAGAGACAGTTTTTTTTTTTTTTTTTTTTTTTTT…TC
RUN CONDITIONS: aptamer strand: ATP DNA aptamer (quencher-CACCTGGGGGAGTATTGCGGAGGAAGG + anchor), 100 nM annealed; ATP concentration: 500 uM
MEASURED PARAMETER: switch fluorescence ratio
Keep it simple and answer with nothing but the number.

TAATCGAGGG ... 0.983

INPUT: Need switch fluorescence ratio, item `GGCCCTACAG`
OUTPUT: 1.01

INPUT: What about this sequence? `GGTAACCGGG`
OUTPUT: 1.02

INPUT: Also `AATGATTCTT` , if possible.
OUTPUT: 0.98

INPUT: Let us now turn to `TTTTACTGAT`
OUTPUT: 1.02

INPUT: Ok, now `GCTGGGCTTG`
OUTPUT: 0.995

INPUT: Item: `CAAGCAGGCA`
OUTPUT: 0.993

INPUT: Please do the same for `CACATTTGGA` as well.
OUTPUT: 0.985

INPUT: Now consider `TTATATTGGG` .
OUTPUT: 1

INPUT: Please do the same for `AGGTTCGG` as well.
OUTPUT: 0.994

INPUT: Next record, please: `TTGTTGAAGT`
OUTPUT: 0.997

Origin of the recorded values: the supplement of paper PMC10126150
